Data provenance: patent US20150315188A1

Molecular target: Human adrenergic α2A receptor (Homo sapiens, UniProt P08913)
Sequence (P08913 1-465): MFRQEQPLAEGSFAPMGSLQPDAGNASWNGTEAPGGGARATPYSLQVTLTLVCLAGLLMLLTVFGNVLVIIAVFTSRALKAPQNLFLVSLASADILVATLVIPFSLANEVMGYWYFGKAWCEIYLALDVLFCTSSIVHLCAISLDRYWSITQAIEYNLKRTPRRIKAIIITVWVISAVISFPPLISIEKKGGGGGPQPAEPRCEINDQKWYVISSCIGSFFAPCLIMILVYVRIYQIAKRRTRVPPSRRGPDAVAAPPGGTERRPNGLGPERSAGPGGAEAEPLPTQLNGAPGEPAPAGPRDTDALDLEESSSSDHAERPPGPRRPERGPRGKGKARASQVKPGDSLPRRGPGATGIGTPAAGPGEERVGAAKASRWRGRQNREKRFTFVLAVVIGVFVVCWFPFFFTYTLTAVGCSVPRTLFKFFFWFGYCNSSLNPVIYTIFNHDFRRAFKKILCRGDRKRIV
Assay: Radioligand binding, adrenergic α2A (Protocol Group A)
Parameters: expressed in transfected cells; host or cells: insect Sf9 cells
Conditions: 0.1 μM compound, [3H]MK-912, read-out: percent inhibition of specific binding, Adrenergic α2A
I would appreciate it if you labelled entries yes (1) when inhibition at 0.1 µM is 20% or higher, otherwise no (0).

Study these solved cases before continuing.
-- ask Determine whether measured inhibition at 0.1 µM meets or exceeds 20% for Cc1ccc2c(c1)c1c(n2CC(OC(N)=O)c2ccncc2)CCN(C)C1 (stereo not shown)
-- reply no (0)

-- ask Try this compound next: Cc1ccc2c(c1)c1c(n2/C=C/c2ccncc2)CCN2CCCC12 (stereo not shown)
-- reply yes (1)

-- ask Try this compound next: Cc1ccc2c(c1)c1c(n2CC(OC(=O)N2CCN(C)CC2)c2ccncc2)CCN(C)C1 (stereo not shown)
-- reply no (0)

-- ask Try this compound next: Cc1ccc2c(c1)c1c(n2CC(OC(=O)N2CCCC2)c2ccncc2)CCN(C)C1 (single isomer, unassigned) [4a]
-- reply yes (1)

-- ask Try this compound next: Cc1ccc2c(c1)c1c(n2C(CC(C)(C)C)C(=O)c2ccncc2)CCN(C)C1 (stereo not shown)
-- reply yes (1)

Read the next record carefully.
-- ask Determine whether measured inhibition at 0.1 µM meets or exceeds 20% for Cc1ccc2c(c1)c1c(n2CC(OCCCC(=O)O)c2ccncc2)CCN(C)C1 (stereo not shown)
-- reply no (0)

* * *

inhibition at 0.1 µM listing for selected compounds.
molecular target: Human adrenergic α2A receptor (Homo sapiens, UniProt P08913); assay: Radioligand binding, adrenergic α2A (Protocol Group B); design: purchased Milipore (Millipore); details: 0.1 μM compound; Protocol Group B; read-out: Percentage inhibition of ligand binding, Adrenergic α2A (0.1 μM)
Give the value, in units of %, as a plain number.

-- ask Name the reported inhibition at 0.1 µM value associated with the compound OC(Cn1c2c(c3cc(F)ccc31)C1CCCN1CC2)c1ccncc1 (single isomer, unassigned) [18b]
-- reply 45

-- ask Try this compound next: Cc1cc(F)c2c(c1)c1c(n2CC(O)c2ccncc2)CCN2CCCC12 (single isomer, unassigned) [137c]
-- reply 10

-- ask Try this compound next: Cc1ccc2c(c1)c1c(n2CC(O)c2ccc(C(=O)NC3CC3)nc2)CCN(C)C1 (stereo not shown)
-- reply -4

Now for a further compound.
-- ask Name the reported inhibition at 0.1 µM value associated with the compound Cc1ccc2c(c1)c1c(n2CC(O)c2ccncc2F)CCN2CCCC12 (stereo not shown)
-- reply 71

* * *

target: Human adrenergic α2B receptor (Homo sapiens, UniProt P18089); assay: Radioligand binding, adrenergic α2B (Protocol Group B); parameters: purchased Milipore (Millipore); settings: Protocol Group B; estimated Ki; read-out: Ki α2B
Sequence (P18089 whole entry): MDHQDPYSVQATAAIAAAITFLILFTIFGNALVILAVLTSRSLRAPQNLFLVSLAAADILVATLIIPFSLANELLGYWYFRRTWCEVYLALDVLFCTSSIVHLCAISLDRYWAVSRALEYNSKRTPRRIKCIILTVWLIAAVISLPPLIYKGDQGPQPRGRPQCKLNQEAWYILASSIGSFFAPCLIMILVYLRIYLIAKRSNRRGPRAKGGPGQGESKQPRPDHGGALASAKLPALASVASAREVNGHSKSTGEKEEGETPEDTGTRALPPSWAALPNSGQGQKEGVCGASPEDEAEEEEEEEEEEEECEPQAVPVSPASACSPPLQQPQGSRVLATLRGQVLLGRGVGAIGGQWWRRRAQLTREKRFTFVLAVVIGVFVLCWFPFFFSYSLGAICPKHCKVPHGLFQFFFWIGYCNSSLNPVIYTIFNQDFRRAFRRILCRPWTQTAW
endpoint_label: pKi
Value format note: pKi is -log10 of concentration (mol/L); just state the number.

Below: 2 molecules and their reported pKi.
-- ask Name the reported pKi value associated with the molecule Cc1cc(Cl)c2c(c1)c1c(n2CC(C)(O)c2ccncc2)CCN2CCCC12 (single isomer, unassigned) [91a]
-- reply 9.15

-- ask Try this molecule next: Cc1cc(F)c2c(c1)c1c(n2CC(C)(O)c2ccncc2)CCN2CCCC12 (single isomer, unassigned) [81b]
-- reply 9.03

Now for a further molecule.
-- ask Name the reported pKi value associated with the molecule Cc1ccc2c(c1)c1c(n2CC(O)c2ccncc2)CNC2CCCC12 (single isomer, unassigned) [34c]
-- reply 8.34

* * *

inhibition at 0.1 µM listing for selected compounds.
molecular target: Human adrenergic α2A receptor (Homo sapiens); assay: Radioligand binding, adrenergic α2A (Protocol Group B); set-up: purchased Milipore (Millipore); conditions: 0.1 μM compound; Protocol Group B; read-out: Percentage inhibition of ligand binding, Adrenergic α2A (0.1 μM)
Give the value, in units of %, as a plain number.

Below: 7 compounds and their reported inhibition at 0.1 µM.
-- ask Please state recorded inhibition at 0.1 µM (tested on Human adrenergic α2A receptor (Homo sapiens)) of Cc1cc(Cl)c2c(c1)c1c(n2CC(C)(O)c2ccncc2)CCN2CCCC12 (single isomer, unassigned) [91a]
-- reply 81

-- ask Try this compound next: CC(O)(Cn1c2c(c3cc(F)ccc31)C1CCCN1CC2)c1ccncc1 (single isomer, unassigned) [31a]
-- reply 33

-- ask Try this compound next: CC(O)(Cn1c2c(c3cc(C(F)(F)F)ccc31)CN1CCCC1C2)c1cccnc1 (centres unmarked) [85b]
-- reply -14

-- ask Try this compound next: Cc1cc(F)cc2c3c(n(CC(C)(O)c4ccncc4)c12)CCN1CCCC31 (single isomer, unassigned) [77a]
-- reply 3

-- ask Try this compound next: Cc1ccc2c(c1)c1c(n2CC(OCC2CCC2)c2ccncc2)CCN(C)C1 (centres unmarked) [59b]
-- reply 39

-- ask Try this compound next: Cc1ccc2c(c1)c1c(n2CC(C)(O)c2cccnc2)CCN(CC(F)F)C1 (centres unmarked) [compound 58]
-- reply -6

-- ask Try this compound next: Cc1ccc2c(c1)c1c(n2CC(C)(O)c2cnc3ccccc3c2)CCN(C)C1 (single isomer, unassigned) [32a]
-- reply 10

Now for a further compound.
-- ask Please state recorded inhibition at 0.1 µM (tested on Human adrenergic α2A receptor (Homo sapiens)) of Cc1ccc2c(c1)c1c(n2CC(C)(O)c2ccc(OCC3CC3)nc2)CCN(C)C1 (centres unmarked) [compound 56]
-- reply 1

* * *

Biological target: Human adrenergic α1B receptor (Homo sapiens, UniProt P35368)
Sequence (P35368 1-520): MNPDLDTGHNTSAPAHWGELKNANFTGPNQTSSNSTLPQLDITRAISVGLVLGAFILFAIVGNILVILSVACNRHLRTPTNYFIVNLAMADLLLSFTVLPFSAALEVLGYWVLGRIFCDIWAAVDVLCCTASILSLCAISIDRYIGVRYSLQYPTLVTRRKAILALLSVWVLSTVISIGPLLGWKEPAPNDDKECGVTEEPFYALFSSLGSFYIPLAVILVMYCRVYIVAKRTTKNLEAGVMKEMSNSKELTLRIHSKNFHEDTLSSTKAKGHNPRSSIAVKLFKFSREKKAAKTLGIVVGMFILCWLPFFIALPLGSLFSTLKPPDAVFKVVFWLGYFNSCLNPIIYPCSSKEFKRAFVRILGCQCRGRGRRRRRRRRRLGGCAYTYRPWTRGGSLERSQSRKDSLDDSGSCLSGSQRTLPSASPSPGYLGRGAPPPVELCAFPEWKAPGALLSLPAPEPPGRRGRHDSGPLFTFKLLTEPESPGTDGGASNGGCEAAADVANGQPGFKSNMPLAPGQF
log10 of Ki listing for selected molecules.
// stored as log10 of Ki expressed in nM

Below: 5 molecules and their reported log10 of Ki.
-- ask Please state recorded log10 of Ki (tested on Human adrenergic α1B receptor (Homo sapiens, UniProt P35368)) of Cc1cc(F)c2c(c1)c1c(n2CC(C)(O)c2ccncc2)CCN2CCCC12 (single isomer, unassigned) [81b]
-- reply 1.55

-- ask Try this molecule next: Cc1ccc2c(c1F)c1c(n2CC(C)(O)c2cccnc2)CCN2CCCC12 (single isomer, unassigned) [87c]
-- reply 1.42

-- ask Try this molecule next: CC(O)(Cn1c2c(c3cc(F)ccc31)C1CCCN1CC2)c1ccncc1 (single isomer, unassigned) [31a]
-- reply 2.16

-- ask Try this molecule next: Cc1cc(Cl)c2c(c1)c1c(n2CC(C)(O)c2ccncc2)CCN2CCCC12 (single isomer, unassigned) [91a]
-- reply 1.32

-- ask Try this molecule next: Cc1cc(Cl)c2c(c1)c1c(n2CC(C)(O)c2ccncc2)CCN2CCCC12 (single isomer, unassigned) [91b]
-- reply 1.58

Further cases:
-- ask Please state recorded log10 of Ki (tested on Human adrenergic α1B receptor (Homo sapiens, UniProt P35368)) of Cc1ccc2c(c1)c1c(n2CC(OC2CCCC2)c2ccncc2)CCN(C)C1 (single isomer, unassigned) [35b]
-- reply 2.66

-- ask Try this molecule next: Cc1ccc2c(c1)c1c(n2CC(OC(=O)N2CCCC2)c2ccncc2)CCN(C)C1 (single isomer, unassigned)
-- reply 2.43

-- ask Try this molecule next: Cc1cc2c3c(n(CC(C)(O)c4ccncc4)c2cc1Cl)CCN1CCCC31 (single isomer, unassigned) [50b]
-- reply 0.84

-- ask Try this molecule next: CC(O)(Cn1c2c(c3cc(Cl)cc(F)c31)C1CCCN1CC2)c1ccncc1 (single isomer, unassigned) [52b]
-- reply 1.60

-- ask Try this molecule next: CC(O)(Cn1c2c(c3cc(Cl)cc(F)c31)C1CCCN1CC2)c1ccncc1 (single isomer, unassigned) [52a]
-- reply 1.06

-- ask Try this molecule next: Cc1ccc2c(c1)c1c(n2CC(C)(O)c2ccncc2)CCN2CCCC12 (single isomer, unassigned) [13b]
-- reply 1.54

-- ask Try this molecule next: Cc1cc(F)c2c(c1)c1c(n2CC(O)c2ccncc2)CCN2CCCC12 (single isomer, unassigned) [137a]
-- reply 1.18

-- ask Try this molecule next: Cc1cc(C)c2c(c1)c1c(n2CC(C)(O)c2cccnc2)CCN2CCCC12 (single isomer, unassigned) [44a]
-- reply 1.80

-- ask Try this molecule next: CCCOC(Cn1c2c(c3cc(C)ccc31)CN(C)CC2)c1ccncc1 (single isomer, unassigned) [42b]
-- reply 2.30

-- ask Try this molecule next: OC(Cn1c2c(c3cc(Cl)cc(F)c31)C1CCCN1CC2)c1ccncc1 (single isomer, unassigned) [135a]
-- reply 1.36
